assay_system: UniProt:A0ACN5CWH9
assay_comment: Effect of inhibitors on activity of purified A. terreus ODC (residual activity, standard TNBS assay)
Format: biochemical
protocol_conditions: inhibitor 200 µg/mL, enzyme preincubated 2 h, then L-ornithine; residual ODC activity
The molecules listed here are annotated with their Relative Activity (%).
Answer in %, number only, no unit symbol.

N#CS.N=C(N)N [Guanidine thiocyanate, guanidine thiocyanate]: 30
NC(=O)CI [Iodoacetamide, iodoacetamide]: 10
NO [Hydroxylamine, hydroxylamine]: 0

Ask: // returns reported Relative Activity (%) for input `O=C(O)c1cc(SSc2ccc([N+](=O)[O-])c(C(=O)O)c2)ccc1[N+](=O)[O-]`
Reply: 14

Ask: For the molecule C#CCC(N)C(=O)O (stereo not drawn) , what Relative Activity (%) is on record?
Reply: 17

Ask: # get_value(readout='Relative Activity (%)', item= NCCCC(N)(C(=O)O)C(F)F (stereo not drawn) )
Reply: 0

====

Known Relative Activity (%) of a selection of compounds
assay_system: A. terreus ODC (Aspergillus terreus)
assay_comment: Effect of inhibitors on activity of purified A. terreus ODC (residual activity, standard TNBS assay)
Assay type: biochemical
protocol_conditions: inhibitor 400 µg/mL, enzyme preincubated 2 h, then L-ornithine; residual ODC activity
Procedure: The amino acid identity of the active sites implicated in the catalysis of A. terreus ODC has been scrutinized by the response to suicide inhibitors, namely propargylgycine (PPG), guanidine thiocyanate, hydroxylamine, iodoacetamide, DTNB, MBTH and curcumin. […] The activity of ODC was determined based on the amount of released putrescine using 2,4,6-tri-nitrobenzene sulfonic acid (TNBS) reagent. […]
Give the value, in units of %, as a plain number.

# count of solved cases: 4
C#CCC(N)C(=O)O (centres unmarked): 6
NC(=O)CI [Iodoacetamide, iodoacetamide]: 0
O=C(O)c1cc(SSc2ccc([N+](=O)[O-])c(C(=O)O)c2)ccc1[N+](=O)[O-]: 5.8
NO [Hydroxylamine, hydroxylamine]: 0

Could you now consider this next compound?
Ask: I'd like to know its Relative Activity (%). The compound in question is NCCCC(N)(C(=O)O)C(F)F (centres unmarked)
Reply: 0

====

assay_system: A. terreus ODC (Aspergillus terreus, UniProt A0ACN5CWH9)
assay_comment: Effect of inhibitors on activity of purified A. terreus ODC (residual activity, standard TNBS assay)
Assay type: biochemical
protocol_conditions: inhibitor 40 µg/mL, enzyme preincubated 2 h, then L-ornithine; residual ODC activity
reported_endpoint: Relative Activity (%)
Your answer is read as %, so omit the unit and give the number.

Ask: Endpoint output: Relative Activity (%) of NCCCC(N)(C(=O)O)C(F)F (stereo not drawn) . Value?
Reply: 0.1

Ask: Consider the compound NO [Hydroxylamine, hydroxylamine] and give its measured Relative Activity (%).
Reply: 13

Ask: What does the data say about its Relative Activity (%)? Entry: `O=C(O)c1cc(SSc2ccc([N+](=O)[O-])c(C(=O)O)c2)ccc1[N+](=O)[O-]`
Reply: 27

====

assay_system: A. terreus ODC (Aspergillus terreus)
assay_comment: Effect of inhibitors on activity of purified A. terreus ODC (residual activity, standard TNBS assay)
Format: biochemical
protocol_conditions: inhibitor 5 µg/mL, enzyme preincubated 2 h, then L-ornithine; residual ODC activity
Where Relative Activity (%) equals or exceeds 40%, the correct label is fulfilled; where it does not, the label is not fulfilled.

NC(=O)CI [Iodoacetamide, iodoacetamide]: not fulfilled
C#CCC(N)C(=O)O (stereo not drawn): fulfilled
N#CS.N=C(N)N [Guanidine thiocyanate, guanidine thiocyanate]: fulfilled
NO [Hydroxylamine, hydroxylamine]: fulfilled

Ask: // inclusive: Relative Activity (%) at least 40%? input: NCCCC(N)(C(=O)O)C(F)F (stereo not drawn)
Reply: not fulfilled
